observable: melting point (°C)

Here are 5 molecules together with their reported answers.
>>> df
                                   molecule     observable  unitdescriptor  numericreadout
0  CCOC(=O)Nc1cccc([N+](=O)[O-])c1[N+](=O)[O-] [ethyl (2,3-dinitrophenyl)carbamate]  melting point              °C             103
1                          CCOc1ccc(OCC)cc1  melting point              °C              72
2                         Cc1ccc(Cl)c(Cl)c1  melting point              °C             -15
3                        Cc1cc(Cl)ccc1B(O)O  melting point              °C             194
4  CC1COc2c(N3CCN(C)CC3)c(F)cc3c(=O)c(C(=O)O)cn1c23 (stereo not given)  melting point              °C             254

(P) O=C(O)c1ccc(I)cc1
(Q) O=C1C=CC(=O)O1 [maleic anhydride]
(R) CC1(C)OC(=O)CC(=O)O1
Hey, quick one: sort these by melting point, largest value first please. Provide your answer as the labels ordered per the instruction.
P, R, Q
(P: 273 °C, R: 98 °C, Q: 54 °C)
